- protocol_description: log P determination by LC-MS in the acidic range (HCOOH)
- Assay type: physicochemical
- particulars: LC-MS column with aqueous formic acid/acetonitrile gradient, pH 2.7, 0.1% aqueous formic acid and acetonitrile
assay_endpoint: chromatographic logP
One number for each entry.

Some compounds with known chromatographic logP results, for comparison:
CON1CCC2(CC1)OC(=O)C(c1c(C)cc(C)cc1C)=C2O [I-a-1]; 2.15
CCOC(=O)C1(O)CCN(OC)CC1 [XIV-1]; 0.94
CCOC(=O)C1(O)CCN(OCC)CC1 [XIV-2]; 1.16

Now for a further compound.
q: What chromatographic logP value was documented for this compound, CCOC(=O)C1(OC(=O)Cc2c(C)cc(C)cc2C)CCN(OC)CC1 [II-1] ?
a: 4.28
